Each entry below carries its recorded IC50.
system: recombinant form of Glutaminase 1 (GAC) (Homo sapiens, UniProt O94925)
measurementDescription: Recombinant Enzyme Assay - Time Dependence (60 min preincubation)
Type: biochemical
particulars: read-out: GAC Delta N2 IC50 60 min preinc
Give just the numeric value; nM need not be written.

These solved cases illustrate the format of a correct answer.
{"molecule": "O=C(Cc1ccccc1)Nc1ccc(CCCCc2nnc(NC(=O)Cc3cccc(OC4COC(c5ccccc5)OC4)c3)s2)nn1 (stereo not shown) [Compound 506]", "IC50, nM": 10}
{"molecule": "CS(=O)(=O)Cc1cccc(CC(=O)Nc2ccc(CCCCc3nnc(NC(=O)Cc4ccccc4)s3)nn2)c1 [Compound 635]", "IC50, nM": 5}
{"molecule": "O=C(Cc1ccccc1)Nc1nnc(CCCCc2ccc(NC(=O)C(O)c3cccc(Cl)c3)nn2)s1 (stereo not shown) [Compound 365]", "IC50, nM": 9}
{"molecule": "CC(C)(C)CNC(=O)Cc1cccc(CC(=O)Nc2nnc(CCCCc3ccc(NC(=O)Cc4ccccc4)nn3)s2)c1 [Compound 471]", "IC50, nM": 3}
{"molecule": "COc1ccc(CC(=O)Nc2nnc(CCCCc3ccc(NC(=O)Cc4ccccc4)nn3)s2)cc1F [Compound 544]", "IC50, nM": 6}

Which measured IC50 value corresponds to COc1ccccc1CC(=O)Nc1nnc(CCCCc2ccc(NC(=O)Cc3ccccc3F)nn2)s1 [Compound 532] ?
6

Here is the next molecule: O=C(Cc1ccccc1)Nc1ccc(CCCCc2nnc(NC(=O)Cc3cccc(OCC(F)(F)F)c3)s2)nn1 [Compound 665]
5

----------
system: recombinant form of Glutaminase 1 (GAC) (Homo sapiens, UniProt O94925)
measurementDescription: Recombinant Enzyme Assay - Time Dependence (60 min preincubation)
Format: biochemical
particulars: read-out: GAC Delta N2 IC50 60 min preinc
property: pIC50
# reply with the number alone; pIC50 is -log10 of concentration in mol/L

{"compound": "COc1cccc(CC(=O)Nc2ccc(CCCCc3nnc(NC(=O)Cc4cccc(OC(F)(F)F)c4)s3)nn2)c1", "quantitativeResult": 8.30}
{"compound": "O=C(Cc1ccccc1)Nc1ccc(CCCCc2nnc(NC(=O)Cc3ccc(Cl)c(Cl)c3)s2)nn1", "quantitativeResult": 8.00}
{"compound": "CC(=O)Nc1ccc(CCCCc2nnc(NC(=O)Cc3cccc(CN)c3)s2)nn1", "quantitativeResult": 7.07}

Find pIC50 (recombinant form of Glutaminase 1 (GAC) (Homo sapiens, UniProt O94925)) for the entry O=C(Cc1ccccc1)Nc1ccc(CCCCc2nnc(NC(=O)Cc3cccc(OC(F)(F)F)c3)s2)nn1
8.15

Here is the next compound: CNCc1cccc(CC(=O)Nc2nnc(CCCCc3ccc(NC(=O)Cc4ccccc4)nn3)s2)c1
7.74

Here is the next compound: COC(=O)NC(C)c1cccc(CC(=O)Nc2ccc(CCCCc3nnc(NC(=O)C(C)c4ccccc4)s3)nn2)c1 (stereo not drawn)
8.22

----------
system: recombinant form of Glutaminase 1 (GAC) (Homo sapiens)
Sequence (O94925 137-598 isoform O94925-3 limits assumed): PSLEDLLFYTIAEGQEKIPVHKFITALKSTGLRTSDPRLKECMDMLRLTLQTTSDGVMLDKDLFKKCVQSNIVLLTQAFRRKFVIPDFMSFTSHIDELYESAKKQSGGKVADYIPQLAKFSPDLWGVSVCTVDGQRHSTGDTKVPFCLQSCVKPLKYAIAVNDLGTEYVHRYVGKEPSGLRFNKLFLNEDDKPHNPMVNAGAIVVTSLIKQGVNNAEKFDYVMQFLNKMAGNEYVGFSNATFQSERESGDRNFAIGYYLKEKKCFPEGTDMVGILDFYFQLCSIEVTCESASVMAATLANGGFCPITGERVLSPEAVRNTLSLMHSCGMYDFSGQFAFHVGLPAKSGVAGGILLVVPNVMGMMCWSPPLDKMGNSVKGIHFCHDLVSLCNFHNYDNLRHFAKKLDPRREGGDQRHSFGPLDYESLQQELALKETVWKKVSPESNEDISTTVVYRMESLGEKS
measurementDescription: Recombinant Enzyme Assay - Time Dependence (60 min preincubation)
Assay type: biochemical
particulars: read-out: GAC Delta N2 IC50 60 min preinc
property: pIC50
# reply with the number alone; pIC50 is -log10 of concentration in mol/L

{"molecule": "CCOC(=O)c1ccc(CC(=O)Nc2nnc(CCCCc3ccc(NC(=O)Cc4ccccc4)nn3)s2)cc1OCC", "system": "recombinant form of Glutaminase 1 (GAC) (Homo sapiens)", "pIC50": 8.10}
{"molecule": "CN(C)CC(=O)Nc1ccc(CC(=O)Nc2nnc(CCCCc3ccc(NC(=O)Cc4ccccc4)nn3)s2)cc1", "system": "recombinant form of Glutaminase 1 (GAC) (Homo sapiens)", "pIC50": 8.05}
{"molecule": "COc1cccc(CC(=O)Nc2nnc(CCCCc3ccc(NC(=O)Cc4ccccc4)nn3)s2)c1OC", "system": "recombinant form of Glutaminase 1 (GAC) (Homo sapiens)", "pIC50": 8.10}
{"molecule": "CCOC(=O)NCc1cccc(CC(=O)Nc2ccc(CCCCc3nnc(NC(=O)Cc4ccccc4)s3)nn2)c1", "system": "recombinant form of Glutaminase 1 (GAC) (Homo sapiens)", "pIC50": 8.52}
{"molecule": "CC(O)c1cccc(CC(=O)Nc2ccc(CCCCc3nnc(NC(=O)Cc4cccc(OC(F)(F)F)c4)s3)nn2)c1 (centres unmarked)", "system": "recombinant form of Glutaminase 1 (GAC) (Homo sapiens)", "pIC50": 8.30}
{"molecule": "COc1cccc(CC(=O)Nc2nnc(CCCCc3ccc(NC(=O)Cc4cccc(OC(F)(F)F)c4)nn3)s2)c1", "system": "recombinant form of Glutaminase 1 (GAC) (Homo sapiens)", "pIC50": 8.30}

Which measured pIC50 value corresponds to CCNC(=O)OC(C)c1cccc(CC(=O)Nc2nnc(CCCCc3ccc(NC(=O)Cc4ccccc4)nn3)s2)c1 (centres unmarked) ?
8.40

Here is the next molecule: O=C(Cc1cccc(OC(F)(F)F)c1)Nc1ccc(CCCCc2nnc(NC(=O)Cc3cccc(OCC(F)(F)F)c3)s2)nn1
7.68

----------
Each entry below carries its recorded IC50.
system: recombinant form of Glutaminase 1 (GAC) (Homo sapiens)
measurementDescription: Recombinant Enzyme Assay - Time Dependence (60 min preincubation)
Assay type: biochemical
particulars: read-out: GAC Delta N2 IC50 60 min preinc
Note to self: number, then unit, no commentary.

{"compound": "COc1cccc(C(OC(=O)CCN2CCOCC2)C(=O)Nc2nnc(CCCCc3ccc(NC(=O)Cc4ccccc4)nn3)s2)c1 (centres unmarked)", "result": "60 nM"}
{"compound": "CCNC(=O)OC(C)c1cccc(CC(=O)Nc2ccc(CCCCc3nnc(NC(=O)C(C)c4ccccc4)s3)nn2)c1 (centres unmarked)", "result": "7 nM"}
{"compound": "O=C(Cc1cccc(OCC(F)(F)F)c1)Nc1ccc(CCCCc2nnc(NC(=O)Cc3ccccc3)s2)nn1", "result": "4 nM"}
{"compound": "CCC(O)C(=O)NCc1cccc(CC(=O)Nc2nnc(CCCCc3ccc(NC(=O)Cc4ccccc4)nn3)s2)c1 (centres unmarked)", "result": "7 nM"}
{"compound": "CCOC(=O)Cc1cccc(CC(=O)Nc2nnc(CCCCc3ccc(NC(=O)Cc4ccccc4)nn3)s2)c1", "result": "3 nM"}

Which measured IC50 value corresponds to CC(=O)Nc1ccc(CCCCc2nnc(NC(=O)Cc3cccc(CNC(=O)Cc4ccccc4)c3)s2)nn1 ?
6 nM

Here is the next compound: Nc1ccc(CCCCc2nnc(NC(=O)Cc3cccc(CNC(=O)c4ccccc4)c3)s2)nn1
52 nM

Here is the next compound: CC(N)c1cccc(CC(=O)Nc2nnc(CCCCc3ccc(NC(=O)Cc4ccccc4)nn3)s2)c1 (centres unmarked)
12 nM

Here is the next compound: O=C(Cc1ccccc1Cl)Nc1ccc(CCCCc2nnc(NC(=O)Cc3ccccc3)s2)nn1
6 nM

Here is the next compound: CC(NC(=O)C(F)(F)F)c1cccc(CC(=O)Nc2ccc(CCCCc3nnc(NC(=O)Cc4ccccc4)s3)nn2)c1 (centres unmarked)
4 nM

Here is the next compound: CC(C)CNC(=O)Cc1cccc(CC(=O)Nc2nnc(CCCCc3ccc(NC(=O)Cc4ccccc4)nn3)s2)c1
3 nM
